These entries and their values trace back to PubChem BioAssay (NCI).

Reported TGI values follow for various compounds
# Test system: OVCAR-4 ovarian
# Method description: NCI tumour cell line growth inhibition, 48 h

{"columns": ["Compound", "TGI"],
 "data": [
  ["CCSC(SCC)c1cc2c(cc1Br)OCO2", "> 100 µM"]
]}

So for CC1=[N+]([O-])C(C)(C)N(N=O)C1(C)C , the logged TGI turned out to be > 10 µM

So for CC(=O)OCC1OC(n2c(C#N)cc(=O)[nH]c2=O)CC1OC(C)=O (configuration not stated) , the logged TGI turned out to be > 100 µM

So for Nc1ccccc1SC(CC(=O)c1ccccc1)c1ccc([N+](=O)[O-])cc1 (configuration not stated) , the logged TGI turned out to be 25.9 µM

So for C=CCOc1ccc(/C(N=Nc2ccc(C)cc2)=N/NC(=O)c2ccccc2)cc1OC , the logged TGI turned out to be > 100 µM

So for CC(C)(C)N1C(=O)c2ccccc2C1(O)C(F)(F)F (configuration not stated) , the logged TGI turned out to be > 100 µM

---

// endpoint GI50 / system NCI-H460 lung

# count of solved cases: 10
{"columns": ["Compound", "Target desc", "GI50"],
 "data": [
  ["CCCCCCCCCCCCNC(=O)[C@H]1CSC(c2cc3ccccc3s2)N1 (stereo partly specified)", "NCI-H460 lung", "1.02 µM"],
  ["COc1cccc(Cn2c(-c3nonc3N)nc3ccccc32)c1", "NCI-H460 lung", "0.378 µM"],
  ["O=C(N/N=C/c1ccccc1O)C(O)(c1ccccc1)c1ccccc1", "NCI-H460 lung", "3.54 µM"],
  ["COc1ccccc1/C=C/C(=O)c1c(O)cc2occc2c1OC", "NCI-H460 lung", "> 100 µM"],
  ["Cc1ccc(S(=O)(=O)Oc2ccc([N+](=O)[O-])cc2[N+](=O)[O-])cc1", "NCI-H460 lung", "15.4 µM"],
  ["N=C(N)/N=C(\\N)c1c(-c2cc(O)ccc2O)nc2sccn12", "NCI-H460 lung", "> 100 µM"],
  ["Cn1cc(-c2csc(-c3cn(C)c4ccc(Br)cc34)n2)c2cnccc21", "NCI-H460 lung", "1.87 µM"],
  ["Cc1nc2ccccn2c1NC(=O)NNC(=S)Nc1ccc(Br)cc1", "NCI-H460 lung", "34.1 µM"],
  ["O=C1/C(=C\\c2ccc(F)cc2)CN(C(=O)c2ccc([N+](=O)[O-])cc2)C/C1=C\\c1ccc(F)cc1", "NCI-H460 lung", "4.26 µM"],
  ["COC(=O)[C@H]1[C@@H](O)[C@@]2(O)c3c(OC)cc(O[C@@H]4O[C@@H]([C@H](O)CO)CO[C@H]4OC)cc3O[C@@]2(c2ccc(OC)cc2)[C@@H]1c1ccccc1", "NCI-H460 lung", "0.004 µM"]
]}

Pending compound:
Tested system NCI-H460 lung; GI50 recorded for NCCCCCCCCn1c2c(c3ccccc3c1=O)C(=O)c1ccccc1-2 was 3.66 µM

---

# System: UACC-257 melanoma
# Method description: NCI tumour cell line growth inhibition, 48 h
Metric: TGI

# count of solved cases: 3
{"columns": ["Compound", "TGI"],
 "data": [
  ["COC(=O)C(=O)C(C(=O)C1=NS(=O)(=O)c2cc(S(N)(=O)=O)c(Cl)cc2N1)c1nc2ccc(C(=O)c3ccccc3)cc2[nH]c1=O (stereo not given)", "> 100 µM"],
  ["CC(C)/C(Cl)=N/OC(=O)Nc1cccc(C(F)(F)F)c1", "29.5 µM"],
  ["CC(/C=C/C(=O)c1sc(-n2nc(-c3ccccc3)cc2-c2ccccc2)nc1C)=C\\c1ccccc1", "> 100 µM"]
]}

Tested system UACC-257 melanoma; TGI recorded for C=C(C)CNC(=S)N(N)c1ccc(OC)cc1 was > 100 µM

Tested system UACC-257 melanoma; TGI recorded for N#CC1(C#N)NC(c2cccnc2)C(C#N)(C#N)NC1c1cccnc1 (stereo not given) was > 100 µM
